# Test Target: Hypoxanthine-guanine phosphoribosyltransferase (Homo sapiens)
# Method Description: Inhibition of N-terminal hexa-histidine-tagged human HGPRT using PRib-PP as substrate in presence of guanine by Hanes plot analysis
# Ki per record follows
# number only, unit µM dropped from output

Worked cases, answers included:
Nc1nc2c(nc(Br)n2CC(COCP(=O)(O)O)COCP(=O)(O)O)c(=O)[nH]1 :: 4
Nc1nc2c(ccn2C(COCCP(=O)(O)O)COCCP(=O)(O)O)c(=O)[nH]1 :: 5
Nc1nc2c(nc(Br)n2CC(COCCP(=O)(O)O)COCCP(=O)(O)O)c(=O)[nH]1 :: 0.25
Nc1nc2c(nc(Br)n2C(COCCP(=O)(O)O)COCCP(=O)(O)O)c(=O)[nH]1 :: 19
Nc1nc2c(ncn2CC(COCCP(=O)(O)O)COCCP(=O)(O)O)c(=O)[nH]1 :: 0.1

Endpoint output: Ki of O=c1[nH]cnc2c1ncn2C(COCCP(=O)(O)O)COCCP(=O)(O)O . Value?
3

* * *

# Test Target: Hypoxanthine-guanine phosphoribosyltransferase (Homo sapiens)
# Sequence (P00492 whole entry): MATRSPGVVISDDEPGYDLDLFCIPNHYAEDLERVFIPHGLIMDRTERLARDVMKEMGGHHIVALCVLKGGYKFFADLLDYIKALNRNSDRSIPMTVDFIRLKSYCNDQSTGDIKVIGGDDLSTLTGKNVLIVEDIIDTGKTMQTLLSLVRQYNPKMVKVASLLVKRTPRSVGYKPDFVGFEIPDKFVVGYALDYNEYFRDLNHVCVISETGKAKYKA
# Method Description: Inhibition of N-terminal hexa-histidine-tagged human HGPRT using PRib-PP as substrate in presence of guanine by Hanes plot analysis
The following compounds are listed with their measured pKi values.
Worth noting: pKi values are minus log10 of concentrations stated in mol/L.

O=c1[nH]cnc2c1ccn2CC(COCCP(=O)(O)O)COCCP(=O)(O)O :: 4.77

Recorded pKi for O=c1[nH]cnc2c1nc(Br)n2CC(COCCP(=O)(O)O)COCCP(=O)(O)O , please?
5.01

What does the record list as pKi for Nc1nc2c(ncn2C(COCCP(=O)(O)O)COCCP(=O)(O)O)c(=O)[nH]1 ?
6.52

// pKi lookup, key: Nc1nc2c(ccn2CC(COCCP(=O)(O)O)COCCP(=O)(O)O)c(=O)[nH]1
6.00

Name the recorded pKi for O=c1[nH]cnc2c1ncn2CC(COCCP(=O)(O)O)COCCP(=O)(O)O .
5.82

* * *

# System: Plasmodium falciparum
# Method Description: Antimalarial activity against Plasmodium falciparum D6 trophozoites assessed as reduction in [3H]-hypoxanthine incorporation preincubated for 96 hrs followed by [3H]-hypoxanthine addition at 48 hrs post start of experiment
# Type: functional
Measure: IC50 (µM)
Give just the number in µM; leave the unit off.

Example cases with answers are listed next.
CCOC(=O)[C@H](Cc1ccccc1)NP(=O)(CCOCC(COCCP(=O)(N[C@@H](Cc1ccccc1)C(=O)OCC)N[C@@H](Cc1ccccc1)C(=O)OCC)Cn1ccc2c(=O)[nH]c(N)nc21)N[C@@H](Cc1ccccc1)C(=O)OCC :: 0.8
CCOC(=O)[C@H](Cc1ccccc1)NP(=O)(CCOCC(COCCP(=O)(N[C@@H](Cc1ccccc1)C(=O)OCC)N[C@@H](Cc1ccccc1)C(=O)OCC)n1ccc2c(=O)[nH]c(N)nc21)N[C@@H](Cc1ccccc1)C(=O)OCC :: 0.8
CCOC(=O)[C@H](Cc1ccccc1)NP(=O)(CCOCC(COCCP(=O)(N[C@@H](Cc1ccccc1)C(=O)OCC)N[C@@H](Cc1ccccc1)C(=O)OCC)n1cnc2c(=O)[nH]c(N)nc21)N[C@@H](Cc1ccccc1)C(=O)OCC :: 10
CCOC(=O)[C@H](Cc1ccccc1)NP(=O)(CCOCC(COCCP(=O)(N[C@@H](Cc1ccccc1)C(=O)OCC)N[C@@H](Cc1ccccc1)C(=O)OCC)Cn1c(Br)nc2c(=O)[nH]c(N)nc21)N[C@@H](Cc1ccccc1)C(=O)OCC :: 22.1
CCOC(=O)[C@H](Cc1ccccc1)NP(=O)(CCOCC(COCCP(=O)(N[C@@H](Cc1ccccc1)C(=O)OCC)N[C@@H](Cc1ccccc1)C(=O)OCC)Cn1cnc2c(=O)[nH]cnc21)N[C@@H](Cc1ccccc1)C(=O)OCC :: 1.7

Moving on to the next molecule.
Endpoint output: IC50 of CCOC(=O)[C@H](Cc1ccccc1)NP(=O)(CCOCC(COCCP(=O)(N[C@@H](Cc1ccccc1)C(=O)OCC)N[C@@H](Cc1ccccc1)C(=O)OCC)n1c(Br)nc2c(=O)[nH]c(N)nc21)N[C@@H](Cc1ccccc1)C(=O)OCC . Value?
4.4
